Entries and their measured Decrease in fighting follow.
System: Mus musculus
assay.method.text: The compound was tested for activity to decrease fighting in mouse at a dose of 20 mg/Kg
Type: functional
Field: numeric (%). Do not append units.

Here's what some known entries look like.
CCCCCC(C)C(C)c1cc(O)c2c(c1)OC(C)(C)C1=C2CN(CC(=O)NC)CC1 (stereo not given) ... 34
CNC(=O)CN1CCC2=C(C1)c1c(O)cc(C(C)CCCc3ccc(F)cc3)cc1OC2(C)C (stereo not given) ... 93

Query Decrease in fighting on Mus musculus for CC(CCCc1ccc(F)cc1)c1cc(O)c2c(c1)OC(C)(C)C1=C2CN(CC(=O)N(C)C)CC1 (stereo not given)
12

Query Decrease in fighting on Mus musculus for CCCCCC(C)C(C)c1cc(O)c2c(c1)OC(C)(C)C1=C2CN(CC(N)=O)CC1 (stereo not given)
21

Query Decrease in fighting on Mus musculus for CCCCCC(C)C(C)c1cc(O)c2c(c1)OC(C)(C)C1=C2CN(CC(=O)N(C)C)CC1 (stereo not given)
13

###

System: Rattus norvegicus
assay.method.text: The compound was tested for decreasing motor activity in rat at a dose of 5 mg/Kg
Type: functional
Entries and their measured Decrease in activity follow.
Field: numeric (%). Do not append units.

# get_value(readout='Decrease in activity', item= CCCCCC(C)C(C)c1cc(O)c2c(c1)OC(C)(C)C1=C2CN(CC(=O)NC)CC1 (stereo not drawn) )
33

# get_value(readout='Decrease in activity', item= CCCCCC(C)C(C)c1cc(O)c2c(c1)OC(C)(C)C1=C2CN(C(C)C(=O)NC(N)=O)CC1 (stereo not drawn) )
67

###

Tested on: Rattus norvegicus
assay.method.text: The compound was tested for decreasing motor activity in rat at a dose of 80 mg/Kg
Assay type: functional
Okay, here is how we bin by Decrease in activity: 1 = under 60%, 2 = from 60% up to 90%, 3 = 90% and over

Solved entries:
CCCCCC(C)C(C)c1cc(O)c2c(c1)OC(C)(C)C1=C2CN(CC(=O)NC(=O)Nc2ccccc2)CC1 (configuration not stated) ... 1
CCCCCC(C)C(C)c1cc(O)c2c(c1)OC(C)(C)C1=C2CN(C(C)C(=O)NC(N)=O)CC1 (configuration not stated) ... 2
CNC(=O)CN1CCC2=C(C1)c1c(O)cc(C(C)CCCc3ccc(F)cc3)cc1OC2(C)C (configuration not stated) ... 3
CCCCCC(C)C(C)c1cc(O)c2c(c1)OC(C)(C)C1=C2CN(CC(=O)Nc2ccccc2)CC1 (configuration not stated) ... 1
CCCCCC(C)C(C)c1cc(O)c2c(c1)OC(C)(C)C1=C2CN(CC(=O)N(C)C)CC1 (configuration not stated) ... 2
CCCCCC(C)C(C)c1cc(O)c2c(c1)OC(C)(C)C1=C2CN(CC(=O)NC)CC1 (configuration not stated) ... 3
CC(CCCc1ccc(F)cc1)c1cc(O)c2c(c1)OC(C)(C)C1=C2CN(CC(=O)NCC(N)=O)CC1 (configuration not stated) ... 1
CC(CCCc1ccc(F)cc1)c1cc(O)c2c(c1)OC(C)(C)C1=C2CN(CC(=O)N(C)C)CC1 (configuration not stated) ... 2
CCCCCC(C)C(C)c1cc(O)c2c(c1)OC(C)(C)C1=C2CN(CCC(N)=O)CC1 (configuration not stated) ... 2

Turning to the following molecule.
Record CCCCCC(C)C(C)c1cc(O)c2c(c1)OC(C)(C)C1=C2CN(CC(N)=O)CC1 (configuration not stated) — which class?
2
